Attribution: patent US20220347299A1

experiment: Peak absorption and fluorescence emission wavelengths in solvents; type: physicochemical; conditions: Toluene; 10 μM
Assignment: determine reported λabs(max)/nm for the given molecules.
Write the answer as a number in nm, unit excluded.

Asked: Note λabs(max)/nm for the molecule shown: COCCN1C(=O)/C(=C/c2ccc(C#Cc3ccc(N4CCNCC4)cc3)cc2)N=C1C
Given back: 403

Asked: Note λabs(max)/nm for the molecule shown: COC(=O)/C=C/c1ccc(C#Cc2ccc(N3CCNCC3)cc2)cc1
Given back: 361

Asked: Note λabs(max)/nm for the molecule shown: COC(=O)/C=C/c1ccc(C#Cc2ccc(N(C)CCNS(=O)(=O)c3ccc(C)cc3)cc2)cc1
Given back: 381

Asked: Note λabs(max)/nm for the molecule shown: CC(C)(C)OC(=O)/C=C/c1ccc(C#Cc2ccc(N3CCNCC3)cc2)s1
Given back: 380

Asked: Note λabs(max)/nm for the molecule shown: CC(C)(C)OC(=O)/C=C/c1ccc(C#Cc2ccc(N3CCNCC3)cc2)cc1
Given back: 358

Asked: Note λabs(max)/nm for the molecule shown: COC(=O)/C=C/c1ccc(C#Cc2ccc(N3CCN(CCC[P+](c4ccccc4)(c4ccccc4)c4ccccc4)CC3)cc2)cc1.[Br-]
Given back: 367

Asked: Note λabs(max)/nm for the molecule shown: COC(=O)/C=C/c1ccc(C#Cc2ccc(N(C)CCN)cc2)cc1
Given back: 380

Asked: Note λabs(max)/nm for the molecule shown: COC(=O)/C=C/c1ccc(C#Cc2ccc(N3CCN(C(C)=O)CC3)cc2)cc1
Given back: 358
